# procedure.details: Cell Viability - Hek293 (AID 427);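 also: cells exposed to compound for 40 hours at 37 °C before reading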
# condition.parameters: qHTS
Results filed as inconclusive are left out. Activity calls are given as the source filed them.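 The calls were made as follows: active = compounds whose dose-response curve shows a full or clear partial loss of cell viability, called from curve shape rather than a numeric limit; inconclusive = weak partial curves or an effect only at the top dose; inactive = no dose-dependent loss of viability.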
Bench note: report the call from label 1 = active, label 0 = inactive

GET /call?item= `Nc1ccccc1C(=O)OCCc1ccccc1` returns the recorded outcome of this test.
label 0

Recorded test call requested for `CCCCCCCCn1sccc1=O`
label 1

Test call, this compound: `c1ccc2cc3c(cc2c1)-c1cccc2cccc-3c12`
label 0

Called result for `OC(c1ccc(Cl)cc1)(c1ccc(Cl)cc1)C(Cl)(Cl)Cl`
label 0

###

# experimental.system: Muscarinic acetylcholine receptor M1 (Rattus norvegicus)
# procedure.details: qHTS Assay for Antagonists of Acetylcholine Muscarinic M1 Receptor: Measurement of IP-One Response (AID 944); also: nearly all actives have a fitted effect of over 75% in size
# condition.parameters: CHO-M1 cells, IP-One HTRF, antagonist mode; series mostly up to 46.1 µM
Results filed as inconclusive are left out. Activity calls are given as the source filed them. Calls come from the whole dose curve; as a rule, active = well fitted inhibition curve with a large enough effect; inconclusive = small, poorly fitted or top-dose-only effect; inactive = no such curve, though single readings can be large or run the other way.
Output constraint: value belongs to Yes for active, No for inactive

Please state the recorded outcome for this molecule: `N[C@@H]1CCc2cc(O)c(O)cc2C1`
No

Hi, sorry to bother you, what did the test record for `CN[C@@H](C)[C@@H](O)c1ccccc1` ?
No

I'd appreciate the recorded outcome for `Clc1ccc(C(c2ccc(Cl)cc2)n2cc[n+](C[C@@H](OCc3ccc(Cl)cc3Cl)c3ccc(Cl)cc3Cl)c2)cc1` from this test.
Yes

// outcome(item) with item = `C=CCN1CC[C@@]23CCCC[C@@H]2[C@@H]1Cc1ccc(O)cc13`
No

###

# experimental.system: Retinoic acid receptor RXR-alpha (Homo sapiens)
# procedure.details: qHTS assay for small molecule antagonists of retinoid X receptor alpha signaling (AID 588546);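 also: cells stimulated with 9-cis-retinoic acid as agonist; % is scaled to controls: 0 for no effect and ±100 for the full control effect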
# condition.parameters: HEK293T RXRa-UAS-bla, beta-lactamase ratio, antagonist mode
# Source text: NIH Chemical Genomics Center [NCGC] U.S. Environmental Protection Agency [EPA] National Institutes of Environmental Health Sciences [NIEHS] National Toxicology Program [NTP] NCGC Assay Overview The Retinoid X receptor (RXR), a nuclear hormone receptor is expressed in liver, spleen, placenta, epidermis, central nervous system. […]
Records with an inconclusive call do not appear.
quantity: max response (%)
Provide only the numeric value, understood in %.

What value of max response on Retinoic acid receptor RXR-alpha (Homo sapiens) does Cc1c(F)c(F)c(COC(=O)C2C(/C=C(\Cl)C(F)(F)F)C2(C)C)c(F)c1F (centres undefined) have?
12

# value lookup — system Retinoic acid receptor RXR-alpha (Homo sapiens), readout max response, item CC1(C)CCC(Cc2ccc(Cl)cc2)C1(O)Cn1cncn1 (centres undefined)
-14.3

Which measured max response belongs to CC(Oc1cccc(Cl)c1)C(=O)O (centres undefined) , tested on Retinoic acid receptor RXR-alpha (Homo sapiens)?
-12.8

Item `CNC(=S)S` with Retinoic acid receptor RXR-alpha (Homo sapiens) - max response?
-13.7

Which max response is reported with Retinoic acid receptor RXR-alpha (Homo sapiens) for this entry: `CCS(=O)(=O)c1cccnc1S(=O)(=O)NC(=O)Nc1nc(OC)cc(OC)n1` ?
8.72

Form entry - test system: Retinoic acid receptor RXR-alpha (Homo sapiens); read-out: max response; molecule: `Nc1c(Cl)c(F)nc(OCC(=O)O)c1Cl`
-9.36

Give Retinoic acid receptor RXR-alpha (Homo sapiens) max response for `CC(C)COP(=O)(OCC(C)C)OCC(C)C`
3.45

For the record `CCCCOC(=O)[C@@H](C)Oc1ccc(Oc2ccc(C#N)cc2F)cc1` , what value of max response is listed for Retinoic acid receptor RXR-alpha (Homo sapiens)?
12.7

Which measured max response belongs to `O=C(NC(=O)c1c(F)cccc1F)Nc1ccc(Cl)cc1` , tested on Retinoic acid receptor RXR-alpha (Homo sapiens)?
-3.02
